Data provenance: ChEMBL document CHEMBL2412955

- System: Staphylococcus aureus
- procedure_details: Antibacterial activity against methicillin-resistant Staphylococcus aureus after 18 hrs by NCCLS agar dilution method
- Assay type: functional
outcome_measure: MIC (µg/mL)
Answer with a number only, understood to be in µg/mL.

Known MIC results, listed for orientation:
O=C(NCC(=O)N1CCN(c2ccc(N3C[C@H](Cn4ccnn4)OC3=O)cc2F)CC1)c1cccnc1    1
O=C(NCC(=O)N1CCN(c2ccc(N3C[C@H](Cn4ccnn4)OC3=O)cc2F)CC1)c1ccco1    1

We next turn to a different compound, shown below.
Item under review: Cc1cn(C[C@H]2CN(c3ccc(N4CCN(C(=O)CNC(=O)c5cc([N+](=O)[O-])cc([N+](=O)[O-])c5)CC4)c(F)c3)C(=O)O2)nn1 . Reported MIC?
1
